- assayed system: T1, cynomolgus monkey C1s (produced in house) (cynomolgus monkey, UniProt P09871 16-685 (human entry), limits assumed)
- T1 construct: also called CyC1s
- T1 chain: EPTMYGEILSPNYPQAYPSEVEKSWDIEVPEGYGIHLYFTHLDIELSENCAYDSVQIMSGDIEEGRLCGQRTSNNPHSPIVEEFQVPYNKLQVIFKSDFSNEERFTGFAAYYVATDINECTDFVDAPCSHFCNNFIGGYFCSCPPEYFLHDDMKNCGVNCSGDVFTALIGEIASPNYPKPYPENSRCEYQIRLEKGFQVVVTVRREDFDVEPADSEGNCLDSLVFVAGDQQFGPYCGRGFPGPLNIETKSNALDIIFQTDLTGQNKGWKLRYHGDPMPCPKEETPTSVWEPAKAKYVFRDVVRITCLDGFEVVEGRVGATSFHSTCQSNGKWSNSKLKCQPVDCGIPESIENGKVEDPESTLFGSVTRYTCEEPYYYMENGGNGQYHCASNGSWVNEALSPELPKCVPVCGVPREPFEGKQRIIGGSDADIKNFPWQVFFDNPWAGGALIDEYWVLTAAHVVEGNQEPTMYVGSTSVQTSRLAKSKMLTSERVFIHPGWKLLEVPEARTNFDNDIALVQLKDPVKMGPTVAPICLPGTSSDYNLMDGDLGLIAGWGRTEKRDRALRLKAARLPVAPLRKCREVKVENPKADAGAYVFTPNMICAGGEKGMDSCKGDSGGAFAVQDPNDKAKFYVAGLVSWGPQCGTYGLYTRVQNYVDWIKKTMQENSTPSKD
- assay: ELISA, plate coated with 200 ng/well CyC1s, OD450nm
Please provide measured EC50 for the entries that follow.
Give bare numbers, in µg/mL.

Anti-C1s antibody hz2-8 (H1L2 G80A/T82A) (antibody, V domains shown, Humanized variant with G80A and T82A in HC CDR2 (already in the entry), human IgG1 / kappa) VH: QVQLVQSGAEVKKPGASVKVSCKASGFNIKEYYMHWVRQAPEQGLEWMGWIDPENADAIYAQKFQGRVTITADTSTNTAYMELSSLRSEDTAVYYCARSRLFFAYWGQGTLVTVSS VL: DIQMTQSPKSLSASVGDRVTITCRASQDVRTALDWYQQKPGQSPKLLIYSASYRYSGVPSRFSGSGSGTDFTLTISSLQPEDFATYYCQQQYTTPYTFGQGTKLEIKR	0.01

Please state, for each entry, its recorded EC50.
1. Anti-C1s antibody hz2-7(H1L2) (antibody, V domains shown, Humanized, human IgG1 / kappa; also called hz2-7(1L2)) VH: EVQLLESGGGLVQPGGSLRLSCAASGFTFSNYFMNWVRQAPGKGLEWVSEIRLKFTNYATHYADSVKGRFTISRDDSKSTLYLQMNSLRAEDTAVYYCTRDYGSRNGYFDYWGQGTLVTVSS VL: DIVMTQTPLSLPVTPGEPASISCRSSKSLLHSNGNTFLYWFLQKPGQSPQLLIYRMSNLASGVPDRFSGSGSGTDFTLKISRVEAEDVGVYYCMQHLEYPYTFGGGTKLEIKR
2. Anti-C1s antibody 2-7 (antibody, human IgG1, kappa, V domains shown, the HC/LC entries may hold it too; also called clone 2-7) VH: EVKLEESGGGLVPPGGSMKLSCVASGFTFSNYFMNWVRQSPEKGLEWVAEIRLKFTNYATHYAESVEGRFTISRDDSKSSVYLQMNNLRAEDTGIYYCTRDYGSRNGYFDYWGQGTTLTVSS VL: DIVMTQAAPSVPVTPGESVSISCRSSKSLLHSNGNTFLYWFLQRPGQSPQLLIYRMSNLASGVPDRFSGSGSGTAFTLRVSRVEAEDVGIYYCMQHLEYPYTFGGGTKLEIKT
3. Anti-C1s antibody 2-8 (antibody, V domains shown, the HC/LC entries may hold it too; also called clone 2-8) VH: EVQLQQSGAELVRPGALVKLSCKASGFNIKEYYMHWVKQRPEQGLEWIGWIDPENGDTIYDPKFQGKASITADTSSNTAYLQLSSLTSEDTAVYYCARSRLFFAYWGQGTLVTVSA VL: DIVMTQSHKFMSTSVGDRVSFTCKASQDVRTAVDWYQQKPGQSPKLLIYSASYRYTGVPDRFTGTGSGTDFTFTISSVQAEDLAVYFCQQQYTTPYTFGGGTKLEIKT

1. 0.015
2. 0.011
3. 0.012
